Entries below carry reported MIC on Entero Cloac. IM 11.
The reply should be a number in µg/mL, with the unit left off.

What measured MIC goes with CC(=O)N[C@@H](CCC(N)=O)C(=O)Nc1ccc(-c2ccc(C(=O)N[C@@H](C(=O)NC3C(=O)N4C(C(=O)O)=C(CSc5nnnn5CS(=O)(=O)O)CSC34)c3ccccc3)c(=O)[nH]2)cc1 (some centres unmarked) [Example 42] ? 6.3

What measured MIC goes with CC(=O)N[C@H](CC(N)=O)C(=O)Nc1ccc(-c2ccc(C(=O)N[C@@H](C(=O)NC3C(=O)N4C(C(=O)O)=C(CSc5nnnn5C)CSC34)c3ccccc3)c(=O)[nH]2)cc1 (some centres unmarked) [Example 23] ? 6.3

What measured MIC goes with CC(=O)N[C@H](CCC(N)=O)C(=O)Nc1ccc(-c2ccc(C(=O)N[C@@H](C(=O)NC3C(=O)N4C(C(=O)O)=C(CSc5nnnn5CC(=O)O)CSC34)c3ccccc3)c(=O)[nH]2)cc1 (some centres unmarked) [Example 37] ? 6.3

Further cases:
What measured MIC goes with CC(=O)N1CCC[C@H]1C(=O)Nc1ccc(-c2ccc(C(=O)N[C@@H](C(=O)NC3C(=O)N4C(C(=O)O)=C(CSc5nnnn5C)CSC34)c3ccccc3)c(=O)[nH]2)cc1 (some centres unmarked) [Example 2] ? 6.3

What measured MIC goes with CC(=O)OCC1=C(C(=O)O)N2C(=O)C(NC(=O)[C@H](NC(=O)c3ccc(-c4ccc(NC(=O)[C@@H]5CC(OC(C)=O)CN5C(C)=O)cc4)[nH]c3=O)c3ccccc3)C2SC1 (some centres unmarked) [Example 32] ? 25

###

- Test system: Staph UC76
- method: In vitro minimal inhibitory concentration, Staph UC76
- Type: cell-based
// boundary case: MIC equal to 0.8 µg/mL maps to No; strictly smaller maps to Yes

Before answering, review these 6 worked examples.
Is 0.8 µg/mL strictly greater than the molecule's reported MIC? molecule: CC(=O)N[C@@H](CCC(N)=O)C(=O)Nc1ccc(-c2ccc(C(=O)N[C@@H](C(=O)NC3C(=O)N4C(C(=O)O)=C(CSc5nnnn5CS(=O)(=O)O)CSC34)c3ccccc3)c(=O)[nH]2)cc1 (stereo partly shown) No

Is 0.8 µg/mL strictly greater than the molecule's reported MIC? molecule: CC(=O)N[C@H](C)C(=O)Nc1ccc(-c2ccc(C(=O)N[C@@H](C(=O)NC3C(=O)N4C(C(=O)O)=C(CSc5nnnn5CCC(=O)O)CSC34)c3ccccc3)c(=O)[nH]2)cc1 (stereo partly shown) No

Is 0.8 µg/mL strictly greater than the molecule's reported MIC? molecule: CC(=O)NC(C)C(=O)Nc1ccc(-c2ccc(C(=O)N[C@@H](C(=O)NC3C(=O)N4C(C(=O)O)=C(CSc5nnnn5C)CSC34)c3ccccc3)c(=O)[nH]2)cc1 (mixture of isomers) Yes

Is 0.8 µg/mL strictly greater than the molecule's reported MIC? molecule: CC(=O)NC(C)(C)C(=O)Nc1ccc(-c2ccc(C(=O)N[C@@H](C(=O)NC3C(=O)N4C(C(=O)O)=C(COC(C)=O)CSC34)c3ccccc3)c(=O)[nH]2)cc1 (stereo partly shown) Yes

Is 0.8 µg/mL strictly greater than the molecule's reported MIC? molecule: CC(=O)N[C@H](C)C(=O)Nc1ccc(-c2ccc(C(=O)N[C@@H](C(=O)NC3C(=O)N4C(C(=O)O)=C(CSc5nnnn5CC(=O)O)CSC34)c3ccccc3)c(=O)[nH]2)cc1 (stereo partly shown) No

Is 0.8 µg/mL strictly greater than the molecule's reported MIC? molecule: CC(=O)N[C@H](C)C(=O)Nc1ccc(-c2ccc(C(=O)N[C@@H](C(=O)NC3C(=O)N4C(C(=O)O)=C(CSc5nnnn5C)CSC34)c3ccc(O)cc3)c(=O)[nH]2)cc1 (stereo partly shown) No

Further cases:
Is 0.8 µg/mL strictly greater than the molecule's reported MIC? molecule: CC(=O)NCCCCC(NC(C)=O)C(=O)Nc1ccc(-c2ccc(C(=O)N[C@@H](C(=O)NC3C(=O)N4C(C(=O)O)=C(COC(C)=O)CSC34)c3ccccc3)c(=O)[nH]2)cc1 (mixture of isomers) No

Is 0.8 µg/mL strictly greater than the molecule's reported MIC? molecule: Cn1nnnc1SCC1=C(C(=O)O)N2C(=O)C(NC(=O)[C@H](NC(=O)c3ccc(-c4ccc(NC(=O)[C@@H]5CCC(=O)N5)cc4)[nH]c3=O)c3ccccc3)C2SC1 (stereo partly shown) Yes

Is 0.8 µg/mL strictly greater than the molecule's reported MIC? molecule: CC(=O)NC(C)C(=O)Nc1ccc(-c2ccc(C(=O)N[C@@H](C(=O)NC3C(=O)N4C(C(=O)O)=C(COC(C)=O)CSC34)c3ccccc3)c(=O)[nH]2)cc1 (mixture of isomers) Yes

Is 0.8 µg/mL strictly greater than the molecule's reported MIC? molecule: CC(=O)N[C@@H](C)C(=O)Nc1ccc(-c2ccc(C(=O)N[C@@H](C(=O)NC3C(=O)N4C(C(=O)O)=C(CSc5nnnn5C)CSC34)c3ccccc3)c(=O)[nH]2)cc1 (stereo partly shown) No

Is 0.8 µg/mL strictly greater than the molecule's reported MIC? molecule: CC(=O)N[C@@H](CCC(N)=O)C(=O)Nc1ccc(-c2ccc(C(=O)N[C@@H](C(=O)NC3C(=O)N4C(C(=O)O)=C(CSc5nnnn5CC(=O)O)CSC34)c3ccccc3)c(=O)[nH]2)cc1 (stereo partly shown) No

Is 0.8 µg/mL strictly greater than the molecule's reported MIC? molecule: CC(=O)NCCCCC(NC(C)=O)C(=O)Nc1ccc(-c2ccc(C(=O)N[C@@H](C(=O)NC3C(=O)N4C(C(=O)O)=C(CSc5nnnn5C)CSC34)c3ccccc3)c(=O)[nH]2)cc1 (mixture of isomers) No

Is 0.8 µg/mL strictly greater than the molecule's reported MIC? molecule: CC(=O)N[C@H](C)C(=O)Nc1ccc(-c2ccc(C(=O)N[C@@H](C(=O)NC3C(=O)N4C(C(=O)O)=C(COC(C)=O)CSC34)c3ccc(O)cc3)c(=O)[nH]2)cc1 (stereo partly shown) No

###

- System: Klebs. Pneum. MGH 2
// values below are reported MIC

For orientation, consider the following solved cases.
Recall the recorded MIC for CC(=O)NCCCCC(NC(C)=O)C(=O)Nc1ccc(-c2ccc(C(=O)N[C@@H](C(=O)NC3C(=O)N4C(C(=O)O)=C(CSc5nnnn5C)CSC34)c3ccccc3)c(=O)[nH]2)cc1 (mixture of isomers) [Example 26] with Klebs. Pneum. MGH 2 and state it. 1.6 µg/mL

Recall the recorded MIC for CC(=O)NC(C)C(=O)Nc1ccc(-c2ccc(C(=O)N[C@@H](C(=O)NC3C(=O)N4C(C(=O)O)=C(CSc5nnc(C)s5)CSC34)c3ccccc3)c(=O)[nH]2)cc1 (mixture of isomers) [Example 22] with Klebs. Pneum. MGH 2 and state it. 3.1 µg/mL

Recall the recorded MIC for CC(=O)OCC1=C(C(=O)O)N2C(=O)C(NC(=O)[C@H](NC(=O)c3ccc(-c4ccc(NC(=O)[C@@H]5CCCN5C(C)=O)cc4)[nH]c3=O)c3ccccc3)C2SC1 (stereo partly shown) [Example 12] with Klebs. Pneum. MGH 2 and state it. 6.3 µg/mL

Recall the recorded MIC for CC(=O)OCC1=C(C(=O)O)N2C(=O)C(NC(=O)[C@H](NC(=O)c3ccc(-c4ccc(NC(=O)[C@@H]5CC(O)CN5C(C)=O)cc4)[nH]c3=O)c3ccccc3)C2SC1 (stereo partly shown) [Example 31] with Klebs. Pneum. MGH 2 and state it. 6.3 µg/mL

Recall the recorded MIC for CC(=O)N[C@@H](CCC(N)=O)C(=O)Nc1ccc(-c2ccc(C(=O)N[C@@H](C(=O)NC3C(=O)N4C(C(=O)O)=C(CSc5nnnn5CC(=O)O)CSC34)c3ccccc3)c(=O)[nH]2)cc1 (stereo partly shown) [Example 21] with Klebs. Pneum. MGH 2 and state it. 3.1 µg/mL

Recall the recorded MIC for CC(=O)NC(C)C(=O)Nc1ccc(-c2ccc(C(=O)N[C@@H](C(=O)NC3C(=O)N4C(C(=O)O)=C(COC(N)=O)CSC34)c3ccccc3)c(=O)[nH]2)cc1 (mixture of isomers) [Example 10] with Klebs. Pneum. MGH 2 and state it. 12.5 µg/mL

Recall the recorded MIC for CC(=O)N[C@@H](CCC(N)=O)C(=O)Nc1ccc(-c2ccc(C(=O)N[C@@H](C(=O)NC3C(=O)N4C(C(=O)O)=C(CSc5nnnn5C)CSC34)c3ccccc3)c(=O)[nH]2)cc1 (stereo partly shown) [Example 9] with Klebs. Pneum. MGH 2 and state it. 0.8 µg/mL

Recall the recorded MIC for CC(=O)N[C@H](C)C(=O)Nc1ccc(-c2ccc(C(=O)N[C@@H](C(=O)NC3C(=O)N4C(C(=O)O)=C(CSc5nnnn5CCC(=O)O)CSC34)c3ccccc3)c(=O)[nH]2)cc1 (stereo partly shown) [Example 41] with Klebs. Pneum. MGH 2 and state it. 1.6 µg/mL

Recall the recorded MIC for CC(=O)N[C@@H](CCC(N)=O)C(=O)Nc1ccc(-c2ccc(C(=O)N[C@@H](C(=O)NC3C(=O)N4C(C(=O)O)=C(COC(C)=O)CSC34)c3ccccc3)c(=O)[nH]2)cc1 (stereo partly shown) [Example 14] with Klebs. Pneum. MGH 2 and state it. 3.1 µg/mL

Switching to the query record.
Recall the recorded MIC for CC(=O)N[C@H](C)C(=O)Nc1ccc(-c2ccc(C(=O)N[C@@H](C(=O)NC3C(=O)N4C(C(=O)O)=C(CSc5nnnn5C)CSC34)c3ccc(O)cc3)c(=O)[nH]2)cc1 (stereo partly shown) [Example 25] with Klebs. Pneum. MGH 2 and state it. 1.6 µg/mL
